Cited source: the supplement of paper PMC12645437

# system_tested: T1, CRBN, Q96SW2;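 also: pooled lentiviral library of zinc finger degron-EGFP fusions in mCherry-positive Jurkat cells, FACS-sorted after compound exposure, with degron abundance counted by next-generation sequencing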
# T1 chain: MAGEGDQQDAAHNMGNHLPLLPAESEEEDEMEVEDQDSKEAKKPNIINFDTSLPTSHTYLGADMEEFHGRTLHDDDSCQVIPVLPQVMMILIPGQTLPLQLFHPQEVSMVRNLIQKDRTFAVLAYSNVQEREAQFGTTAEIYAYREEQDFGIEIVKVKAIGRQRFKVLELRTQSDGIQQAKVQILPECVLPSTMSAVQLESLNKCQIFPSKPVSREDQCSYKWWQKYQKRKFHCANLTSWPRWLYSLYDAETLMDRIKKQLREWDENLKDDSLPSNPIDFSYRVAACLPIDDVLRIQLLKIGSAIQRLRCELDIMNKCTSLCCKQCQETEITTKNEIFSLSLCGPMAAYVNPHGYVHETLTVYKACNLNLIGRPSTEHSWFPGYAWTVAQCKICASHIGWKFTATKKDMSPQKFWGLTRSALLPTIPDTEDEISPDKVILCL
# procedure_details: log2 fold change of degron read counts, EGFP-low vs EGFP+ sorted cells (limma voom), compound-induced degradation; higher = more compound-induced degradation of the degron-EGFP fusion; degrons are variants of IKZF1/3 zinc finger 2; compound dose not given here
# test_conditions: Jurkat; 18 h; compound: compound 33 (diphenyl IMiD analogue)
In all, about 8,300 sequences were measured (“log2 fold change of degron read counts, EGFP-low vs EGFP+ sorted cells (limma voom), compound-induced degradation”: median about -1.1, highest 2% from about 3.2 on). What follows is part of a selection rich in the highest values, with near analogues and random picks from the rest.
Returns rule met if the recorded log2 fold change of degron read counts is greater than or equal to -1, and rule not met otherwise.

- input_sequence: "FHCPICGHSFTQKGNLLRHIKL [46F_47H_49P_50I_52G_53H_54S_55F_67L_, Q9UKT9]"
  label_class: "rule not met"
- input_sequence: "LGCPICGFVCTQKGNLLRHIKL [46L_47G_49P_50I_52G_53F_54V_55C_67L_, Q9UKT9]"
  label_class: "rule met"
- input_sequence: "LNCPICGFDCTQKGNLLRHIKL [46L_47N_49P_50I_52G_53F_54D_55C_67L_, Q9UKT9]"
  label_class: "rule not met"
- input_sequence: "FGCEVCGAQFTQKGNLLRHIKL [46F_47G_49E_50V_52G_53A_54Q_55F_67L_, Q9UKT9]"
  label_class: "rule met"
- input_sequence: "FQCDVCGAAFTQKGNLLRHIKL [46F_47Q_49D_50V_52G_53A_54A_55F_67L_, Q9UKT9]"
  label_class: "rule met"
- input_sequence: "FECNQCGAQFTQKGNLLRHIKL [46F_47E_49N_50Q_52G_53A_54Q_55F_67L_, Q9UKT9]"
  label_class: "rule not met"
- input_sequence: "FLCNQCGRCFTQKGNLLRHIKL [46F_47L_49N_50Q_52G_53R_54C_55F_67L_, Q9UKT9]"
  label_class: "rule not met"
- input_sequence: "FYCEICGREFTQKGNLLRHIKL [46F_47Y_49E_50I_52G_53R_54E_55F_67L_, Q9UKT9]"
  label_class: "rule met"
